System: XIP peptide (Xip251-270)
experiment_notes: small-molecule binders of XIP peptide, primary screen, biochemical, small-molecule microarray, fluorescence 635/667 nm, 0.5 µg/mL protein (AID 1183)
assay_setup: small-molecule microarray binding, fluorescence 635 nm; higher = more signal
Is composite z-score at least 0.5? Then T. If not, F.

# compound, label
data = [
    ("COC(=O)[C@H](C)NC(=O)CCC1CC(OC(=O)NCCc2ccc(F)cc2)CC2(CCCC(COC(=O)NCc3cccc(C(F)(F)F)c3)O2)O1 (stereo partly drawn)", "T"),
    ("CC(C)CON=C1C[C@@H](O)[C@@H](O)[C@@H]2[C@@H]3C(=O)N(c4cccc(Oc5ccccc5)c4)C(=O)[C@@H]3CC[C@@H]12", "T"),
    ("O=C1CCCC=C1C(O)CCOC(c1ccccc1)(c1ccccc1)c1ccccc1 (stereo not drawn)", "F"),
    ("CCOC(=O)[C@H](Cc1ccccc1)NC(=O)CCC1CC(OC(=O)NCc2cccc3ccccc23)CC2(CCCC(COC(=O)NCc3ccccc3)O2)O1 (stereo partly drawn)", "F"),
    ("COc1ccc(O[C@H]2C=C[C@@H](c3ccccc3)O[C@@H]2COC(=O)CCC(C)=NOC(C)CN2CCCc3nc(C)c(C)cc32)cc1 (stereo partly drawn)", "T"),
    ("CCOC(=O)[C@H](CC(C)C)NC(=O)CCC1CC(OC(=O)NCCc2ccc(F)cc2)CC2(CCCC(COC(=O)NCCc3ccccc3OC)O2)O1 (stereo partly drawn)", "T"),
    ("CC(C)=NO[C@H](C)c1cn([C@H](CO)Cc2ccccc2)nn1", "F"),
]
